- TGT: hMCH-1R (Homo sapiens)
- Sequence (Q99705 whole entry): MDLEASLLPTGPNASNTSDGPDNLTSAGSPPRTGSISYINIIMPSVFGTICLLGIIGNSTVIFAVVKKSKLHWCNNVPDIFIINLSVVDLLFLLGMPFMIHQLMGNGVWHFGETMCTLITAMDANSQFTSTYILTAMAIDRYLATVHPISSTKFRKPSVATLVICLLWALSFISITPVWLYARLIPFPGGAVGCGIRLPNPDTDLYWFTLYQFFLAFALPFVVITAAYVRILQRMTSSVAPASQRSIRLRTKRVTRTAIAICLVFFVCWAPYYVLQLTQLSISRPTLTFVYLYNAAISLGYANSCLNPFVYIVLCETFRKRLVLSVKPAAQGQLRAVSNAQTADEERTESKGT
Simple rule here: IC50 less than 30 nM is met, otherwise not met.

{"MOLECULE": "O=c1cc(OCc2ccccc2)ccn1CCc1ccc2c(c1)CCNCC2 [Example 23.2]", "DISCRETE LABEL": "met"}
{"MOLECULE": "CC(c1ccc(C(=O)Cn2ncc(OCc3ccccc3)cc2=O)cc1)N1CCN(C)CC1 (stereo not drawn) [Example 47.5]", "DISCRETE LABEL": "met"}
{"MOLECULE": "CN1CCN(Cc2ccc(C(=O)Cn3ncc(OCc4ccccc4)cc3=O)cc2)CC1 [Example 32.10]", "DISCRETE LABEL": "met"}
{"MOLECULE": "O=C(Cn1ccc(OCc2ccccc2)cc1=O)c1ccc(CN2CC(O)C2)cc1 [Example 29.13]", "DISCRETE LABEL": "met"}
{"MOLECULE": "O=c1cc(OCc2ccc(Br)cn2)ccn1CC(O)c1ccc2c(c1)CNCC2 (stereo not drawn) [Example 39.1]", "DISCRETE LABEL": "not met"}
{"MOLECULE": "O=c1cc(OCc2ccccc2)ccn1CCc1ccc(CN2CCCC2)s1 [Example 28.1]", "DISCRETE LABEL": "met"}
